binders and their reported pIC50
- experimental target: Neurotensin receptor NTS1 (HT29 cells/membranes) (human, UniProt P30989)
- Sequence (P30989 whole entry): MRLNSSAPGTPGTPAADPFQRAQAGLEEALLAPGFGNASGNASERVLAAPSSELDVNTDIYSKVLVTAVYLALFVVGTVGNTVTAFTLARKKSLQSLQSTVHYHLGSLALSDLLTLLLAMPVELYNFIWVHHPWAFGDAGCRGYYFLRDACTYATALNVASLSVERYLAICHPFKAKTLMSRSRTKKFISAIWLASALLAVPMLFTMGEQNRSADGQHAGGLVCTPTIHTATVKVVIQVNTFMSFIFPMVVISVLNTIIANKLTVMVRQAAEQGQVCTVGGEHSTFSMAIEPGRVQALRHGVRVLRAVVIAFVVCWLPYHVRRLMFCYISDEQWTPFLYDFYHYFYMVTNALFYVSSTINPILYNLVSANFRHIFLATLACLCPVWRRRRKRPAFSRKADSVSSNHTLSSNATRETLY
- assay comment: competition, HT29 cells
Keep it numeric: pIC50 is minus log10 of the concentration in mol/L.

Study these solved cases before continuing.
binder: KPRRPYIL (not fully specified; N-methylated Pro7-Arg8 bond, Tle12; DTPA(In) at Lys6) [DTPA(In)-NT-20.3]
pIC50: 7.80
--
binder: KPRRPYIL (NT(6-13) analogue, N-methylated Pro7-Arg8 bond, Tle12) [NT-20.3]
pIC50: 8.66

Read the next record carefully.
Sample KPRRPYIL (not fully specified; N-methylated Pro7-Arg8 bond, Tle12; DOTA(Ga) at Lys6) [DOTA(Ga)-NT-20.3] ; pIC50 observed: 7.86
